molecular target: MATE2K (Homo sapiens, UniProt Q86VL8); experiment: Uptake ratio in MATE2K-overexpressing HEK293 cells vs empty vector (2.5 μM, 1 min, HPLC-MS/MS); assay type: cell-based; details: fold uptake over empty vector, 2.5 μM, 1 min
Sequence (Q86VL8 1-566 isoform Q86VL8-3): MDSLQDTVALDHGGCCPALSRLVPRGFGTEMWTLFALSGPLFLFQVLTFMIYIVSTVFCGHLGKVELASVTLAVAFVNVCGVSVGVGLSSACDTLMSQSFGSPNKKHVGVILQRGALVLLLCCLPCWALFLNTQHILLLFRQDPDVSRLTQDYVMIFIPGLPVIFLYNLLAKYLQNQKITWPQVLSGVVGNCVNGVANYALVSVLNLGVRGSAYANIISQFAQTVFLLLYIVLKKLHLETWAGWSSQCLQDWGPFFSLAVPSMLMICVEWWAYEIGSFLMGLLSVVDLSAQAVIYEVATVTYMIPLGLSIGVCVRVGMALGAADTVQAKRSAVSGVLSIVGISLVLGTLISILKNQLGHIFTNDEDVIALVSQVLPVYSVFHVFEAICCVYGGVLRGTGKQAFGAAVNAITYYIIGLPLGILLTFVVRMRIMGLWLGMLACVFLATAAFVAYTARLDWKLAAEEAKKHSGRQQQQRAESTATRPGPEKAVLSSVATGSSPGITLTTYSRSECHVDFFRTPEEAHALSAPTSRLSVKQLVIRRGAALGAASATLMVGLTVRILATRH
recordedMetric: MATE2K ratio
Could you respond with only the numeric value?

Quick one: MATE2K ratio of CC(C)NCC(O)c1ccc(NS(C)(=O)=O)cc1 (stereo not shown) ? 1.62

Request the reported MATE2K ratio associated with Nc1nc(NC2CC2)c2ncn([C@H]3C=C[C@@H](CO)C3)c2n1 1.25

What measured MATE2K ratio goes with CC(C)NCC(O)c1cc(O)cc(O)c1 (stereo not shown) ? 23.10

Which MATE2K ratio is listed for COc1ccc(-n2nc(C(N)=O)c3c2C(=O)N(c2ccc(N4CCCCC4=O)cc2)CC3)cc1 ? 1.15

Which MATE2K ratio is listed for CN[C@H]1CC[C@@H](c2ccc(Cl)c(Cl)c2)c2ccccc21 ? 1.10

Any idea what its MATE2K ratio is? The molecule is COc1cc(CNC(=O)CCCC/C=C/C(C)C)ccc1O 0.99

----------
molecular target: MATE2K (Homo sapiens, UniProt Q86VL8); assay: Uptake ratio in MATE2K-overexpressing HEK293 cells vs empty vector (2.5 μM, 1 min, HPLC-MS/MS); assay type: cell-based; details: fold uptake over empty vector, 2.5 μM, 1 min
recordedMetric: MATE2K ratio
Please reply with the number alone, leaving off any unit.

NCCc1c[nH]cn1 = 1.40
CN1CC(=O)NC1=N = 1.07
CC(C)(C)NCC(O)c1ccc(O)c(CO)c1 [Salbutamol (R), Salbutamol] = 3.74

Which MATE2K ratio is listed for C[C@@H](O)[C@H]1C(=O)N2C(C(=O)O)=C(S[C@@H]3CN[C@H](C(=O)N(C)C)C3)[C@H](C)[C@H]12 ? 1.33

Dear colleague, I am looking for the recorded MATE2K ratio of the following compound: Cc1cnc(Nc2ccc(OCCN3CCCC3)cc2)nc1Nc1cccc(S(=O)(=O)NC(C)(C)C)c1 0.87

----------
test system: hCMEC; assay: TS MDAI hCMEC (Table S2); assay type: cell-based, human; design: scale not given here; settings: Table S2
Rule: TS MDAI hCMEC below 0.8 gives label 1, anything at or above gives label 0.

COc1c(N2C[C@@H]3CCCN[C@@H]3C2)c(F)cc2c(=O)c(C(=O)O)cn(C3CC3)c12 = label 0
C=CCN1CC[C@]23c4c5ccc(O)c4O[C@H]2C(=O)CC[C@@]3(O)[C@H]1C5 = label 1
CCCNC(C)C(=O)Nc1c(C)csc1C(=O)OC (stereo not drawn) = label 1
O=C(CCCN1CCC(O)(c2ccc(Cl)cc2)CC1)c1ccc(F)cc1 = label 1
N[C@@H]1CON=C1O [Cycloserine (L), Cycloserine] = label 1
CN[C@@H]1CCc2[nH]c3ccc(C(N)=O)cc3c2C1 = label 0

Threshold test, TS MDAI hCMEC < 0.8: C[N+](C)(C)CC(=O)O label 0

Could you please tell me whether TS MDAI hCMEC recorded for O=C1CC[C@@]2(O)[C@H]3Cc4ccc(O)c5c4[C@@]2(CCN3CC2CC2)[C@H]1O5 [Naltrexone] is less than 0.8? label 1

Strictly below 0.8: is that where TS MDAI hCMEC of CN1CCN(C2=Nc3cc(Cl)ccc3Nc3ccccc32)CC1 sits? label 1

----------
molecular target: MATE1 (Homo sapiens); assay: Uptake ratio in MATE1-overexpressing HEK293 cells vs empty vector (2.5 μM, 1 min, HPLC-MS/MS); assay type: cell-based; details: uptake ratio MATE1-overexpressing vs empty-vector HEK293 cells, 2.5 μM, 1 min; mean
Sequence (Q96FL8 whole entry): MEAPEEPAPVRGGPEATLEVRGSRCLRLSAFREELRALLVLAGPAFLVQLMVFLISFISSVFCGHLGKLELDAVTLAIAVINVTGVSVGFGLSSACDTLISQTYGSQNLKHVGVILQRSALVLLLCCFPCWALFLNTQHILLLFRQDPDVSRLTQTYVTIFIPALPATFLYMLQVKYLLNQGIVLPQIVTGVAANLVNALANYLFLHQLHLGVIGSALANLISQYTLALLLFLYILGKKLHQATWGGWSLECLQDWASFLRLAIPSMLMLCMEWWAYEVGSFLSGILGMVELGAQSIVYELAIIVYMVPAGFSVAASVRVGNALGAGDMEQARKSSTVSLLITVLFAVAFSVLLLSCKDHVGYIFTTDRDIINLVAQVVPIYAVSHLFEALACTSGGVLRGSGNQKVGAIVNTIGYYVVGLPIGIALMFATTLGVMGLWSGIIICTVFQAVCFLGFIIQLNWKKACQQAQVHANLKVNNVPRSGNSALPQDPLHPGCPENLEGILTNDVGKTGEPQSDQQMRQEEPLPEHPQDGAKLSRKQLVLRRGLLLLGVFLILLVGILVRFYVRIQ
recordedMetric: MATE1
// keep it numeric: no unit symbol after the value

Consider the reported MATE1 for these molecules:
Nc1ccn([C@H]2CC[C@@H](CO)O2)c(=O)n1 [Zalcitabine] = 12.98
CC(CN(C)C)CN1c2ccccc2CCc2ccccc21 (centres unmarked) [Trimipramine] = 1.19
NCCCCNCCCN [Spermidine] = 0.63
NCCNCCNCCN [Triethylentetramine] = 0.65
NCCc1ccc(O)cc1 [Tyramine] = 10.06
COc1ccccc1OCC(O)CN1CCN(CC(=O)Nc2c(C)cccc2C)CC1 (centres unmarked) [Ranolazine] = 1.11
Cc1ncc(C[n+]2csc(CCO)c2C)c(N)n1 [Thiamine] = 33.42
CC[C@@]1(O)C(=O)OCc2c1cc1n(c2=O)Cc2cc3c(CN(C)C)c(O)ccc3nc2-1 [Topotecan] = 2.53
C/C=C(\C)C(=O)OC(CC(=O)[O-])C[N+](C)(C)C (centres unmarked) [Tiglylcarnitine] = 0.96
CCN(CC)CCNC(=O)c1ccc(NS(C)(=O)=O)cc1 [Sematilide] = 19.1

Look at this molecule and give its reported MATE1. NCCCNCCCCNCCCN [Spermine] 1.13

What value of MATE1 has been reported for the following molecule? CN(C)CCOC1=Cc2ccccc2Sc2ccc(Cl)cc21 [Zotepin] 0.51

Item OCc1cc(C(O)CNCCCCCCOCCCCc2ccccc2)ccc1O (centres unmarked) [Salmeterol] has what recorded MATE1? 1.78

Please report the recorded MATE1 for C#CCN[C@@H]1CCc2ccccc21 [Rasagiline] . 1.18

// returns reported MATE1 for input O=C1Cc2cc(CCN3CCN(c4nsc5ccccc45)CC3)c(Cl)cc2N1 [Ziprasidone] 1.2

Which MATE1 is listed for CO[C@H]1/C=C/O[C@@]2(C)Oc3c(C)c(O)c4c(O)c(c(/C=N/N5CCN(C)CC5)c(O)c4c3C2=O)NC(=O)/C(C)=C\C=C\[C@H](C)[C@H](O)[C@@H](C)[C@@H](O)[C@@H](C)[C@H](OC(C)=O)[C@@H]1C [Rifampicin] ? 1.02

Requested read-out: MATE1. Entry: Cc1ncc(CO)c(CN)c1O [Pyridoxamine] 2.68

Can you share its MATE1? I mean this molecule: Br.Cc1ncc(C[n+]2cccc(CCO)c2C)c(N)n1.[Br-] [Pyrithiamine] 20.4

So what does the record say about MATE1 for CNC(=C[N+](=O)[O-])NCCSCc1ccc(CN(C)C)o1 [Ranitidine] ? 18.91

Any idea what MATE1 was measured for Cc1ncc(CO)c(CO)c1O [Pyridoxin] ? 2.33

----------
molecular target: MATE2K (Homo sapiens, UniProt Q86VL8); experiment: Uptake ratio in MATE2K-overexpressing HEK293 cells vs empty vector (2.5 μM, 1 min, HPLC-MS/MS); format: cell-based; details: mean ratio of uptake in MATE2K-overexpressing HEK293 cells vs empty vector; 2.5 μM, 1 min
We begin with a simple list: items and their reported MATE2 (uptake ratio).
// return just the number, without any unit appended

Examples with their reported MATE2 (uptake ratio) follow.
CN(C)CCCN1c2ccccc2Sc2ccc(Cl)cc21 = 1.33
C[N+](C)(C)CC(=O)O = 1.07
CNCC[C@@H](Oc1ccccc1C)c1ccccc1 [Atomoxetine] = 1.18

MATE2 (uptake ratio) for CC[N+](CC)(CC)Cc1ccccc1 ? 4.52

Could you tell me which MATE2 (uptake ratio) is on file for CN/C(=N\CCSCc1nc[nH]c1C)NC#N ? 3.6

Which MATE2 (uptake ratio) value is on record for Nc1nc(NC2CC2)c2ncn([C@H]3C=C[C@@H](CO)C3)c2n1 ? 1.25

Can you share its MATE2 (uptake ratio)? I mean this compound: CCCC(=O)Nc1ccc(OCC(O)CNC(C)C)c(C(C)=O)c1 (stereo not shown) 9.08

MATE2 (uptake ratio) lookup needed for CC(C)C[C@H](NC(=O)[C@H](Cc1ccccc1)NC(=O)c1cnccn1)B(O)O , thanks. 1.1

Return reported MATE2 (uptake ratio); argument: CNc1c(C)n(C)n(-c2ccccc2)c1=O [4-Methylaminoantipyrine] 0.83

Item Nc1ccncc1N has what recorded MATE2 (uptake ratio)? 7.01

----------
target: MATE2K (Homo sapiens); test: Uptake ratio in MATE2K-overexpressing HEK293 cells vs empty vector (2.5 μM, 1 min, HPLC-MS/MS); type: cell-based; details: fold uptake over empty vector, 2.5 μM, 1 min
// boundary case: MATE2K ratio equal to 1 maps to no (0); strictly smaller maps to yes (1)

Below, 8 compounds whose answers are already recorded.
CCOC(=O)C1=C[C@@H](OC(CC)CC)[C@H](NC(C)=O)[C@@H](N)C1 = no (0)
Nc1cccc2c1C(=O)N(C1CCC(=O)NC1=O)C2=O (stereo not drawn) [Pomalidomide] = yes (1)
CCC(C)C(=O)OC(CC(=O)[O-])C[N+](C)(C)C (stereo not drawn) = no (0)
Nc1c(Br)cc(Br)cc1CN[C@H]1CC[C@H](O)CC1 = no (0)
CC/C(=C(\c1ccc(O)cc1)c1ccc(OCCNC)cc1)c1ccccc1 [Endoxifen] = no (0)
COc1cc2ncnc(Nc3ccc(F)c(Cl)c3)c2cc1OCCCN1CCOCC1 = yes (1)
N=C(N)N1CCc2ccccc2C1 = no (0)
C=CCN1CCCC1CNC(=O)c1cc2nn[nH]c2cc1OC (stereo not drawn) [Alizapride] = no (0)

Input CC(=O)N[C@@H](CS)C(=O)O ; condition: MATE2K ratio strictly below 1. Does it hold? yes (1)

Source of measurements: paper PMC12207590
